Origin of measurements: the supplement of paper PMC4466140

Each item that follows carries a reported SPOT peptide array binding signal intensity.
Molecular target: SpCyk3
Assay: SPOT peptide array binding signal intensity (averaged, normalized) (arbitrary units (background-subtracted, floor 0; scale differs between SH3 domains)); higher = stronger binding of the SH3 domain to the peptide
Note: the reply should be a number with no unit written.

Look over these answered cases.
YLTRPLPSTPNEDSR
150
SKIRPTPRKPSRMAT
6
RPKRRAPPPVPKKPS
4
VFQFQMPTTPISTKM
4

Task: GET /values?readout=SPOT peptide array binding signal intensity&item= LKRITSPPLPPRADS
Result: 3

Task: GET /values?readout=SPOT peptide array binding signal intensity&item= APPLPPTAPPPPSLP
Result: 1

Task: GET /values?readout=SPOT peptide array binding signal intensity&item= LLLLFVPDSPYDPAI
Result: 25

Task: GET /values?readout=SPOT peptide array binding signal intensity&item= AGKRRLPLVRFKASD
Result: 67

Task: GET /values?readout=SPOT peptide array binding signal intensity&item= TTNRGPPPLPPRANV
Result: 16

Task: GET /values?readout=SPOT peptide array binding signal intensity&item= QQNRPLPQLPNRNNR
Result: 123

Task: GET /values?readout=SPOT peptide array binding signal intensity&item= ITHRLRISIPGITGR
Result: 30

Task: GET /values?readout=SPOT peptide array binding signal intensity&item= RVTRKRPREPKSTND
Result: 4.5

Task: GET /values?readout=SPOT peptide array binding signal intensity&item= APERAVPILPPRNNV
Result: 13
